- Test system: Plasmodium berghei
- protocol-description: Luciferase/luciferin-expressing antifolate-resistant parasites were used to infect a culture of HepG2 cells that were pre-incubated with compounds. Infected hepatocytes emit light due to the luciferase reaction. Assay results are presented as the percent inhibition of light emission compared to control. […]
- Type: functional
- run-parameters: sporozoite, FFLUC_HILL_SLOPE 16.7, FFLUC_R_SQUARED 0.137, HEPG2TOX_HILL_SLOPE 1.66, HEPG2TOX_R_SQUARED 0.728, PBLUC_HILL_SLOPE 12.1, PBLUC_R_SQUARED 0.477, read-out: LUCIFERASE INFECTION ASSAY - IC50
pIC50: −log10 of the molar value.
quantity-kind: pIC50

smiles-repr: CCCn1c(NC(=O)Cc2coc3cc(OC)ccc23)nc2ccccc21
obs-value: 5.96

----------
- Tested on: Plasmodium berghei
- protocol-description: Luciferase/luciferin-expressing antifolate-resistant parasites were used to infect a culture of HepG2 cells that were pre-incubated with compounds. Infected hepatocytes emit light due to the luciferase reaction. Assay results are presented as the percent inhibition of light emission compared to control. […]
- Assay type: functional
- run-parameters: sporozoite, read-out: LUCIFERASE INFECTION ASSAY - IC90
IC90 by entry:
quantity-kind: IC90

molecule: Cn1c(C(C#N)C(=O)c2cc(-c3ccccc3)nc3ccccc23)nc2ccccc21 (configuration not stated)
obs-value: 7.46 µM

molecule: Cn1c(SCC(=O)Nc2cccc(C(=O)O)c2)nnc1-c1cnccn1
obs-value: > 8.91 µM

molecule: CNC(=O)C1CN(C(=O)c2oc3ccc(OC)cc3c2C)c2ccccc2O1 (configuration not stated)
obs-value: > 10 µM

molecule: Cc1ccc(-n2c(C)cc(/C=C3\N=C4CCCCCN4C3=O)c2C)c(C)c1
obs-value: > 10 µM

molecule: CC1=C(C(=O)OCc2ccccc2)C(c2ccc(C(F)(F)F)cc2)CC(=O)N1 (configuration not stated)
obs-value: > 8.48 µM

molecule: CCOc1ccc(/C=C(/C(=O)NCc2ccc(F)cc2)c2nc3ccccc3[nH]2)cc1
obs-value: 5.81 µM

molecule: COc1cc(OC)c2[nH]c(C(=O)Nc3ccc(-n4cccn4)cc3)cc2c1
obs-value: > 10 µM

molecule: O=C(NCCC1=CCCCC1)c1cccc(N2CCCC2=O)c1
obs-value: > 10 µM

molecule: O=c1c(C(F)(F)F)cccn1Cc1csc(COc2ccc(Cl)cc2)n1
obs-value: > 10 µM

molecule: COc1ccccc1-c1nc(COC(=O)c2cccnc2SC)cs1
obs-value: > 10 µM

molecule: CO/N=C/NC(=O)/C(C#N)=C/N(C)C
obs-value: > 16.8 µM

molecule: CC(C)NS(=O)(=O)c1ccc(NC(=S)NC(=O)C(c2ccccc2)c2ccccc2)cc1
obs-value: > 10 µM

molecule: O=[N+]([O-])c1cc(/C=N/O)ccc1Oc1ccc(Cl)cc1
obs-value: > 11.3 µM

molecule: Cc1cccc(N2CCN(C(=O)c3ccccc3SCC(=O)Nc3ccc(F)cc3)CC2)c1C
obs-value: > 10 µM

molecule: COc1ccc(C(=O)Nc2ccc3nc(-c4ccccc4)nn3c2)cc1OC
obs-value: > 10 µM

molecule: C=CCN1C(=O)C(O)(c2cnc(N)s2)c2ccccc21 (configuration not stated)
obs-value: > 10 µM

molecule: Cc1cc(OCC(=O)/N=c2/sccn2C)c(C(C)C)cc1Cl
obs-value: > 10 µM

molecule: Clc1ccc(-c2csc(NCC3CCCO3)n2)cc1 (configuration not stated)
obs-value: > 11.2 µM

molecule: Cc1ccc2nc(NC(=O)COCc3ccccc3)c(C(=O)NC3CCCC3)n2c1
obs-value: > 8.12 µM

molecule: Cc1cc(C(O)=C2Sc3ccccc3C2=O)c(C)n1C
obs-value: > 10 µM

molecule: CCCn1c(NC(=O)c2cccnc2OCC)nc2ccccc21
obs-value: > 10 µM

molecule: O=[N+]([O-])c1ccc(Oc2c(Cl)cc(S(=O)(=O)N3CCCCC3)cc2Cl)c(Cl)c1
obs-value: > 7.09 µM

----------
- Tested on: Plasmodium berghei
- protocol-description: Luciferase/luciferin-expressing antifolate-resistant parasites were used to infect a culture of HepG2 cells that were pre-incubated with compounds. Infected hepatocytes emit light due to the luciferase reaction. Assay results are presented as the percent inhibition of light emission compared to control. […]
- Format: functional
- run-parameters: sporozoite, HEPG2TOX_HILL_SLOPE 1.66, HEPG2TOX_R_SQUARED 0.976, PBLUC_HILL_SLOPE 2.05, PBLUC_R_SQUARED 0.683, read-out: LUCIFERASE INFECTION ASSAY - IC50

smiles-repr: CNc1nc2cnc(Nc3cccc(Cl)c3)cc2n1Cc1ccco1
IC50 (µM): 3.63

----------
- System: Plasmodium berghei
- protocol-description: Luciferase/luciferin-expressing antifolate-resistant parasites were used to infect a culture of HepG2 cells that were pre-incubated with compounds. Infected hepatocytes emit light due to the luciferase reaction. Assay results are presented as the percent inhibition of light emission compared to control. […]
- Type: functional
- run-parameters: sporozoite, HEPG2TOX_HILL_SLOPE 2.9, HEPG2TOX_R_SQUARED 0.761, PBLUC_HILL_SLOPE 1.87, PBLUC_R_SQUARED 0.806, read-out: LUCIFERASE INFECTION ASSAY - IC50
pIC50: −log10 of the molar value.
quantity-kind: pIC50

smiles-repr: COc1ccc(N(Cc2nc(-c3cccs3)oc2C)S(=O)(=O)c2cccs2)cc1
quantity-kind: pIC50
obs-value: 6.86

----------
- Test system: Plasmodium berghei
- protocol-description: Luciferase/luciferin-expressing antifolate-resistant parasites were used to infect a culture of HepG2 cells that were pre-incubated with compounds. Infected hepatocytes emit light due to the luciferase reaction. Assay results are presented as the percent inhibition of light emission compared to control. […]
- Type: functional
- run-parameters: sporozoite, HEPG2TOX_HILL_SLOPE 2.42, HEPG2TOX_R_SQUARED 0.924, PBLUC_HILL_SLOPE 2.7, PBLUC_R_SQUARED 0.388, read-out: LUCIFERASE INFECTION ASSAY - IC50
pIC50: −log10 of the molar value.

smiles-repr: CCOC(=O)c1sc(N)c(C#N)c1COC(=O)C1(c2cccc(F)c2)CCCC1
pIC50: 5.44

----------
- Tested on: Plasmodium berghei
- protocol-description: Luciferase/luciferin-expressing antifolate-resistant parasites were used to infect a culture of HepG2 cells that were pre-incubated with compounds. Infected hepatocytes emit light due to the luciferase reaction. Assay results are presented as the percent inhibition of light emission compared to control. […]
- Type: functional
- run-parameters: sporozoite, HEPG2TOX_HILL_SLOPE 8.49, HEPG2TOX_R_SQUARED 0.235, PBLUC_HILL_SLOPE 3.35, PBLUC_R_SQUARED 0.643, read-out: LUCIFERASE INFECTION ASSAY - IC50
pIC50: −log10 of the molar value.
quantity-kind: pIC50

smiles-repr: O=C(NC1CC1)c1ccc(-c2cnc3c(Nc4cccc(OC(F)(F)C(F)F)c4)nccn23)cc1
assay-target: Plasmodium berghei
obs-value: 5.89

----------
- Tested on: Plasmodium berghei
- protocol-description: Luciferase/luciferin-expressing antifolate-resistant parasites were used to infect a culture of HepG2 cells that were pre-incubated with compounds. Infected hepatocytes emit light due to the luciferase reaction. Assay results are presented as the percent inhibition of light emission compared to control. […]
- Type: functional
- run-parameters: sporozoite, FFLUC_HILL_SLOPE 19.2, FFLUC_R_SQUARED 0.695, HEPG2TOX_HILL_SLOPE 7.84, HEPG2TOX_R_SQUARED 0.253, PBLUC_HILL_SLOPE 4.58, PBLUC_R_SQUARED 0.343, read-out: LUCIFERASE INFECTION ASSAY - IC50
quantity-kind: IC50 (µM)

smiles-repr: CC(C)c1ccc2c(c1)/C(=N/NC(=S)NCCc1ccccc1)C(=O)N2
quantity-kind: IC50
obs-value: 5.02

----------
- System: Plasmodium berghei
- protocol-description: Luciferase/luciferin-expressing antifolate-resistant parasites were used to infect a culture of HepG2 cells that were pre-incubated with compounds. Infected hepatocytes emit light due to the luciferase reaction. Assay results are presented as the percent inhibition of light emission compared to control. […]
- Format: functional
- run-parameters: sporozoite, PBLUC_HILL_SLOPE 15.4, PBLUC_R_SQUARED 0.491, read-out: LUCIFERASE INFECTION ASSAY - IC50
pIC50: −log10 of the molar value.
quantity-kind: pIC50

smiles-repr: O=C(NC1CCN(C(=O)c2ccoc2)CC1)c1cccc2c3c([nH]c12)CCCCC3
obs-value: 5.03

----------
- Tested on: Plasmodium berghei
- protocol-description: Luciferase/luciferin-expressing antifolate-resistant parasites were used to infect a culture of HepG2 cells that were pre-incubated with compounds. Infected hepatocytes emit light due to the luciferase reaction. Assay results are presented as the percent inhibition of light emission compared to control. […]
- Assay type: functional
- run-parameters: sporozoite, HEPG2TOX_HILL_SLOPE 2.1, HEPG2TOX_R_SQUARED 0.922, PBLUC_HILL_SLOPE 2.24, PBLUC_R_SQUARED 0.786, read-out: LUCIFERASE INFECTION ASSAY - IC50
quantity-kind: IC50 (µM)

smiles-repr: CCOC(=O)c1sc(NC(=O)Nc2ccc([N+](=O)[O-])cc2)cc1C
assay-target: Plasmodium berghei
measurement-units: µM
obs-value: 1.84
